Source listed as patent US11186577B2.

# Tested on: MDR1-MDCK cells
# TEST_PROTOCOL: MDR1-MDCK effective efflux assay (Transwell, 10 μM, 1 hour), MDR1-MDCK cells
# Format: in vitro ADME
# CONDITION_CONTEXT: MDCK-MDR1
ASSAY_READOUT: MDR1 EER

| COMPOUND | ASSAY_READOUT | RESULT |
| --- | --- | --- |
| CCOC(=O)N1Cc2cc(Cl)ccc2-n2c(C3CC4(C3)CN(c3ncc(F)cn3)C4)nnc2C1C (centres unmarked) [compound 172] | MDR1 EER | ++ |
| CC(=O)N1Cc2cc(Cl)ccc2-n2c(nnc2C2CC3(C2)CN(c2cnccn2)C3)C1 [compound 93] | MDR1 EER | + |
| COC(=O)N1Cc2cc(Cl)ccc2-n2c(nnc2C2CC3(C2)CN(c2ncc(F)cn2)C3)C1 [compound 92] | MDR1 EER | + |
| CC1c2nnc(C3CC4(C3)CN(c3ccc(F)cn3)C4)n2-c2ccc(Cl)cc2CN1C(=O)OC1CC(F)(F)C1 (centres unmarked) [compound 193] | MDR1 EER | +++ |
| CC1c2nnc(C3CC4(C3)CN(c3ccc(F)cn3)C4)n2-c2ccc(Cl)cc2CN1C(=O)OC(CF)CF (centres unmarked) [compound 203] | MDR1 EER | +++ |

====

# SYSTEM_NAME: human Oxytocin Receptor (hOTR) (Homo sapiens (Human), UniProt P30559)
# Sequence (P30559 whole entry): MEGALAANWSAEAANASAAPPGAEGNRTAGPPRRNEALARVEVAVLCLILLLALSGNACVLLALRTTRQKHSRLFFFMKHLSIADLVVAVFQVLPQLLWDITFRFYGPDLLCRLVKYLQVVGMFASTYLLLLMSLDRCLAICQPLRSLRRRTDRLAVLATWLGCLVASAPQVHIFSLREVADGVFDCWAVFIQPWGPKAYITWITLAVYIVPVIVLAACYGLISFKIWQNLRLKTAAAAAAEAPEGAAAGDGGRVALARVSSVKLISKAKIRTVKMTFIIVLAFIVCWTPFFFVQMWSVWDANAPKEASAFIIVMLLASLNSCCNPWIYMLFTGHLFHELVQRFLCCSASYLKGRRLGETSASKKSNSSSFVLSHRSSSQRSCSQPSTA
# TEST_PROTOCOL: Oxytocin receptor antagonist assay (oxytocin-evoked calcium, FLIPR, CHEM-1-hOTR cells)
# Format: cell-based
# CONDITION_CONTEXT: in vitro antagonist assay, reference compounds; read-out: OT IC50
# Method: This assay was performed in CHEM-1 cells expressing the human Oxytocin Receptor (hOTR) to determine the inhibitory effect of the compounds of the invention on the human Oxytocin receptor. Oxytocin evokes an increase in intracellular calcium in CHEM-1-hOTR cells which is measured in a fluorescence assay on the FLIPR^TETRA using calcium sensitive dyes. […] CHEM-1-hOTR ready was used to assay frozen cells (Eurofins #HTS090RTA) which are supplied with a proprietary Media Component. […]

| MOLECULE | SYSTEM_NAME | IC50 |
| --- | --- | --- |
| CN1Cc2cc(Cl)ccc2-n2c(nnc2[C@H]2CC[C@H](Oc3ccccn3)CC2)C1 [balovaptan, reference compound] | human Oxytocin Receptor (hOTR) (Homo sapiens (Human), UniProt P30559) | > 1000 nM |

====

# SYSTEM_NAME: human Arginine Vasopressin Receptor 1a (AVPR1a) (Homo sapiens (Human))
# Sequence (P37288 whole entry): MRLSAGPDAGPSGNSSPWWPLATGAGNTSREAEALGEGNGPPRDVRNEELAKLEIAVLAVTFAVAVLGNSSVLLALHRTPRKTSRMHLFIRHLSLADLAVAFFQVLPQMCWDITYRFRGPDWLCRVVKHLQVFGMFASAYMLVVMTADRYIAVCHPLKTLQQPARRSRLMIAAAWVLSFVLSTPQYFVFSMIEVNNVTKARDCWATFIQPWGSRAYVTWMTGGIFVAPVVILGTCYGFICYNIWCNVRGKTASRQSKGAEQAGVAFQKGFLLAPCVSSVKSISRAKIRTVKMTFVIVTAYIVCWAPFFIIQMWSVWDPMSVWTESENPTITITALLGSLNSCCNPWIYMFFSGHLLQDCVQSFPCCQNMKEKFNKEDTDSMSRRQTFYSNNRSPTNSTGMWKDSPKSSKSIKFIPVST
# TEST_PROTOCOL: Vasopressin V1A receptor antagonist assay (AVP-evoked calcium, FLIPR, CHO-AVPR1a cells)
# Format: cell-based
# CONDITION_CONTEXT: read-out: V1a IC50
pIC50: −log10 of the molar value.
# key: entry, value: pIC50
ASSAY_READOUT: pIC50

| COMPOUND | SYSTEM_NAME | RESULT |
| --- | --- | --- |
| CC(CF)OC(=O)N1Cc2cc(Cl)ccc2-n2c(nnc2C2CC3(C2)CN(c2ccc(F)cn2)C3)C1 (centres unmarked) | human Arginine Vasopressin Receptor 1a (AVPR1a) (Homo sapiens (Human)) | > 7.00 |
| CN1Cc2cc(Cl)ccc2-n2c(nnc2C2CC3(C2)CN(c2ncccc2F)C3)C1 | human Arginine Vasopressin Receptor 1a (AVPR1a) (Homo sapiens (Human)) | > 7.00 |
| CC1c2nnc(C3CC4(C3)CN(c3ccc(F)cn3)C4)n2-c2ccc(Cl)cc2CN1C (centres unmarked) [compound 179] | human Arginine Vasopressin Receptor 1a (AVPR1a) (Homo sapiens (Human)) | 6.30 to 7.00 |
| CC(=O)N1Cc2cc(Cl)ccc2-n2c(nnc2C2CC3(C2)CN(c2cnccn2)C3)C1 | human Arginine Vasopressin Receptor 1a (AVPR1a) (Homo sapiens (Human)) | > 7.00 |
| CC(=O)N1Cc2cc(Cl)ccc2-n2c(nnc2C2CC3(C2)CN(c2cccc(C#N)n2)C3)C1 | human Arginine Vasopressin Receptor 1a (AVPR1a) (Homo sapiens (Human)) | > 7.00 |
| Clc1ccc2c(c1)CN(C1CC1)Cc1nnc(C3CC4(C3)CN(c3ncccn3)C4)n1-2 | human Arginine Vasopressin Receptor 1a (AVPR1a) (Homo sapiens (Human)) | > 7.00 |
| COC(=O)N1Cc2cc(Cl)ccc2-n2c(nnc2C2CC3(C2)CN(c2ncccn2)C3)C1 | human Arginine Vasopressin Receptor 1a (AVPR1a) (Homo sapiens (Human)) | > 7.00 |
| CC1c2nnc(C3CC4(C3)CN(c3ncccn3)C4)n2-c2ccc(Cl)cc2CN1C(=O)OC1(C)CC1 (single isomer, unassigned) [Cpd 205A] | human Arginine Vasopressin Receptor 1a (AVPR1a) (Homo sapiens (Human)) | > 7.00 |
| CN1Cc2cc(Cl)ccc2-n2c(nnc2C2CC3(C2)CN(C(=O)c2ccccn2)C3)C1 | human Arginine Vasopressin Receptor 1a (AVPR1a) (Homo sapiens (Human)) | < 6.00 |
| CCOC(=O)N1Cc2cc(Cl)ccc2-n2c(C3CC4(C3)CN(c3ncc(F)cn3)C4)nnc2C1C (single isomer, unassigned) [Cpd 172B] | human Arginine Vasopressin Receptor 1a (AVPR1a) (Homo sapiens (Human)) | < 6.00 |
| Cc1nccnc1N1CC2(CC(c3nnc4n3-c3ccc(Cl)cc3CN(C3(C)CC3)C4)C2)C1 | human Arginine Vasopressin Receptor 1a (AVPR1a) (Homo sapiens (Human)) | > 7.00 |
| CC1c2nnc(C3CC4(C3)CN(c3ccc(F)cn3)C4)n2-c2ccc(Cl)cc2CN1C(=O)OC1CC1 (single isomer, unassigned) [Cpd 191A] | human Arginine Vasopressin Receptor 1a (AVPR1a) (Homo sapiens (Human)) | > 7.00 |
| CCC(=O)N1Cc2cc(Cl)ccc2-n2c(nnc2C2CC3(C2)CN(c2cccc(F)n2)C3)C1 | human Arginine Vasopressin Receptor 1a (AVPR1a) (Homo sapiens (Human)) | > 7.00 |
| CC(C)OC(=O)N1Cc2cc(Cl)ccc2-n2c(C3CC4(C3)CN(c3ccncn3)C4)nnc2C1C (single isomer, unassigned) [Cpd 187A] | human Arginine Vasopressin Receptor 1a (AVPR1a) (Homo sapiens (Human)) | > 7.00 |
| CC(C)OC(=O)N1Cc2cc(Cl)ccc2-n2c(C3CC4(C3)CN(c3cnccn3)C4)nnc2C1C (centres unmarked) | human Arginine Vasopressin Receptor 1a (AVPR1a) (Homo sapiens (Human)) | > 7.00 |
| FC(F)CN1Cc2cc(Cl)ccc2-n2c(nnc2C2CC3(C2)CN(c2ccccn2)C3)C1 | human Arginine Vasopressin Receptor 1a (AVPR1a) (Homo sapiens (Human)) | > 7.00 |
| O=C(C(F)F)N1Cc2cc(Cl)ccc2-n2c(nnc2C2CC3(C2)CN(c2ccccn2)C3)C1 | human Arginine Vasopressin Receptor 1a (AVPR1a) (Homo sapiens (Human)) | > 7.00 |
| COC(=O)N1Cc2cc(Cl)ccc2-n2c(C3CC4(C3)CN(c3ncncc3F)C4)nnc2C1C (single isomer, unassigned) [Cpd 188B] | human Arginine Vasopressin Receptor 1a (AVPR1a) (Homo sapiens (Human)) | < 6.00 |
| CN1Cc2cc(Cl)ccc2-c2c(C3CC4(C3)CN(c3ccc(F)cn3)C4)noc2C1 | human Arginine Vasopressin Receptor 1a (AVPR1a) (Homo sapiens (Human)) | > 7.00 |
| COC(=O)N1Cc2cc(Cl)ccc2-n2c(nnc2C2CC3(C2)CN(c2cccc(C#N)n2)C3)C1 | human Arginine Vasopressin Receptor 1a (AVPR1a) (Homo sapiens (Human)) | > 7.00 |
| O=C(OC1CC1)N1Cc2cc(Cl)ccc2-n2c(nnc2C2CC3(C2)CN(c2ccc(F)cn2)C3)C1 | human Arginine Vasopressin Receptor 1a (AVPR1a) (Homo sapiens (Human)) | > 7.00 |
| Clc1ccc2c(c1)CN(C1CC1)Cc1nnc(C3CC4(C3)CN(c3ccncn3)C4)n1-2 | human Arginine Vasopressin Receptor 1a (AVPR1a) (Homo sapiens (Human)) | > 7.00 |
| O=C(C1CC1)N1Cc2cc(Cl)ccc2-n2c(nnc2C2CC3(C2)CN(c2ccccn2)C3)C1 | human Arginine Vasopressin Receptor 1a (AVPR1a) (Homo sapiens (Human)) | > 7.00 |
| CN1Cc2cc(Cl)ccc2-n2c(nnc2C2CC3(C2)CN(c2nc4cnccc4n2C)C3)C1 | human Arginine Vasopressin Receptor 1a (AVPR1a) (Homo sapiens (Human)) | < 6.00 |
| Cc1cccc(N2CC3(CC(c4nnc5n4-c4ccc(Cl)cc4CN(C4CC4)C5)C3)C2)n1 | human Arginine Vasopressin Receptor 1a (AVPR1a) (Homo sapiens (Human)) | > 7.00 |
| COC(=O)N1Cc2cc(Cl)ccc2-n2c(C3CC4(C3)CN(c3cnccn3)C4)nnc2C1C (single isomer, unassigned) [Cpd 165A] | human Arginine Vasopressin Receptor 1a (AVPR1a) (Homo sapiens (Human)) | > 7.00 |
| CC1c2nnc(C3CC4(C3)CN(c3ncc(F)cn3)C4)n2-c2ccc(Cl)cc2CN1C(=O)OC1CC1 (single isomer, unassigned) [Cpd 192A] | human Arginine Vasopressin Receptor 1a (AVPR1a) (Homo sapiens (Human)) | > 7.00 |
| COC(=O)N1Cc2cc(Cl)ccc2-n2c(C3CC4(C3)CN(c3ncccn3)C4)nnc2C1C (centres unmarked) [compound 166] | human Arginine Vasopressin Receptor 1a (AVPR1a) (Homo sapiens (Human)) | > 7.00 |
| CC1c2nnc(C3CC4(C3)CN(c3cnccn3)C4)n2-c2ccc(Cl)cc2CN1C(=O)C1(F)CC1 (centres unmarked) | human Arginine Vasopressin Receptor 1a (AVPR1a) (Homo sapiens (Human)) | > 7.00 |
